- System: TtdR/P_H16_RS10665 tartrate biosensor (pEH083)
- Method Summary: relative induction of RFP reporter vs primary effector; higher = stronger activation
- Condition Info: inducer concentration 5 mM; 6 h; Cupriavidus necator H16; minimal medium + 0.4% gluconate
Endpoint Label: relative induction of RFP reporter (%)
Provide only the numeric value, understood in %.

Completed entries (count: 5):
> print(dat)
                                   molecule                               system.name  unit.string  reading
1                      C=CC(=O)O [acrylate]  TtdR/P_H16_RS10665 tartrate biosensor (pEH083)            %  -0.0524
2                            O=CO [formate]  TtdR/P_H16_RS10665 tartrate biosensor (pEH083)            %    0.287
3    O=C(O)C(=O)c1ccccc1 [phenylglyoxylate]  TtdR/P_H16_RS10665 tartrate biosensor (pEH083)            %   -0.379
4  O=C(O)c1ccc(O)c(O)c1 [3,4-dihydroxybenzoate]  TtdR/P_H16_RS10665 tartrate biosensor (pEH083)            %   -0.148
5                  N[C@@H](Cc1ccccc1)C(=O)O  TtdR/P_H16_RS10665 tartrate biosensor (pEH083)            %    0.153

In: Fill in the blank: the reported relative induction of RFP reporter of CC(=O)C(C)O (stereo unspecified) is ____.
Out: 0.102

---

- System: NahR/P_H16_RS08125 salicylate biosensor (pEH042)
- Method Summary: relative induction of RFP reporter vs primary effector; higher = stronger activation
- Condition Info: inducer concentration 5 mM; 6 h; Cupriavidus necator H16; minimal medium + 0.4% gluconate
relative induction of RFP reporter by entry:
Provide only the numeric value, understood in %.

Completed entries (count: 5):
> print(dat)
                                   molecule                      endpoint.label  reading
1    O=C(O)C(=O)c1ccccc1 [phenylglyoxylate]  relative induction of RFP reporter  0.00691
2          CC(=O)C(C)O (stereo unspecified)  relative induction of RFP reporter  0.00159
3  OC1OC[C@H](O)[C@H](O)[C@H]1O (mixture of isomers)  relative induction of RFP reporter  -0.0109
4  O=C(O)c1ccc(O)c(O)c1 [3,4-dihydroxybenzoate]  relative induction of RFP reporter   0.0143
5                                 NCCC(=O)O  relative induction of RFP reporter   0.0063

In: Fill in the blank: the reported relative induction of RFP reporter of `N[C@@H](Cc1ccccc1)C(=O)O` is ____.
Out: 0.00484

---

- System: AraC/P_araBAD L-arabinose biosensor (pEH176)
- Method Summary: relative induction of RFP reporter vs primary effector; higher = stronger activation
- Condition Info: inducer concentration 5 mM; 6 h; Cupriavidus necator H16; minimal medium + 0.4% gluconate
Endpoint Label: relative induction of RFP reporter

Completed entries (count: 3):
> print(dat)
                                   compound                               system.name    reading
1           O=C(O)CCO [3-hydroxypropanoate]  AraC/P_araBAD L-arabinose biosensor (pEH176)   -0.0357%
2  CC(=O)C(C)O (stereo not given) [acetoin]  AraC/P_araBAD L-arabinose biosensor (pEH176)   0.00953%
3  Nc1ccccc1C(=O)C[C@H](N)C(=O)O [L-kynurenine]  AraC/P_araBAD L-arabinose biosensor (pEH176)  -0.00708%

In: Request - read-out relative induction of RFP reporter | tested on AraC/P_araBAD L-arabinose biosensor (pEH176) | compound O=C(O)C(=O)c1ccccc1 [phenylglyoxylate]
Out: -0.003%

In: Request - read-out relative induction of RFP reporter | tested on AraC/P_araBAD L-arabinose biosensor (pEH176) | compound O=c1[nH]c(=O)c2nc[nH]c2[nH]1 [xanthine]
Out: 0.0252%

In: Request - read-out relative induction of RFP reporter | tested on AraC/P_araBAD L-arabinose biosensor (pEH176) | compound O=C(O)c1ccccc1O [salicylate]
Out: -0.0255%

In: Request - read-out relative induction of RFP reporter | tested on AraC/P_araBAD L-arabinose biosensor (pEH176) | compound O=C(O)c1ccc(O)c(O)c1 [3,4-dihydroxybenzoate]
Out: -0.0224%

In: Request - read-out relative induction of RFP reporter | tested on AraC/P_araBAD L-arabinose biosensor (pEH176) | compound O=C(O)CS(=O)(=O)O [sulfonatoacetate]
Out: 0.0162%

In: Request - read-out relative induction of RFP reporter | tested on AraC/P_araBAD L-arabinose biosensor (pEH176) | compound O=C(O)C1CCCCC1 [cyclohexane-1-carboxylate]
Out: -0.0317%

In: Request - read-out relative induction of RFP reporter | tested on AraC/P_araBAD L-arabinose biosensor (pEH176) | compound NCCC(=O)O [β-alanine]
Out: -0.0067%
